Molecular target: HLA-DRB1*0101 (human)
Experiment: competition
Kindly supply the reported IC50 values for the records listed here.
Could you give me the number in nM? Just the number is fine.

Qu. Entry VAAVQGLNLRSPNNF [Cyclin D1.209 (9019.0171)] has what IC50?
Ans. 44

Qu. Entry PPSMVAAGSVVAAVQ [Cyclin D1.199 (9019.0170)] has what IC50?
Ans. 6.8

Taken from patent US10556943.
